Examples of variants with documented folding stability dG follow.
B1: EEHEE_rd4_0647 (parent)
chain: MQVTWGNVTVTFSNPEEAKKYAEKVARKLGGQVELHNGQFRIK

Variants of: B1
Assay: folding stability dG (cDNA display proteolysis); higher = more stable
Measurement Context: PBS, room temperature
Answer with the value and then the unit.

A26M :: 1.2 kcal/mol
K20W :: 2.67 kcal/mol
K43V :: 3.52 kcal/mol
K43S :: 2.64 kcal/mol

Next variant, please.
Recorded folding stability dG of `N14G` , please.
2.12 kcal/mol
